Measured EC50, listed per entry.
Molecular target: Isoform 2 of Nuclear receptor ROR-alpha (Alpha-2) (Homo sapiens)
Sequence (P35398 as listed by the source): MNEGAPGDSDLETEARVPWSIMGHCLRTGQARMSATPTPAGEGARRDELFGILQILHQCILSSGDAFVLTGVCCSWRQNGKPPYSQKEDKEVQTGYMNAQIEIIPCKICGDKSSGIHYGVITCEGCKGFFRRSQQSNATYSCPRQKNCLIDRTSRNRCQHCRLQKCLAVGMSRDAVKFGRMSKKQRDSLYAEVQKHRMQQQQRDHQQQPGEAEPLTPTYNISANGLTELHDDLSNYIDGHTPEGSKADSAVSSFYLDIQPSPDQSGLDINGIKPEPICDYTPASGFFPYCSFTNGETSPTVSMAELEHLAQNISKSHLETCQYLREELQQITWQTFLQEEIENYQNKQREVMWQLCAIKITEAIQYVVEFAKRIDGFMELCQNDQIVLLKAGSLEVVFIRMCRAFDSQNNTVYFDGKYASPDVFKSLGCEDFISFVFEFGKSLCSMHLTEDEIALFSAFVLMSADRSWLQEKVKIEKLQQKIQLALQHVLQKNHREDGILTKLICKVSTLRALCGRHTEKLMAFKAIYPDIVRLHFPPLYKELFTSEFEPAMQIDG
Assay: activators of RORA nuclear receptor, dose response, cell-based, CHO-K1, Gal4-RORA LBD, luciferase luminescence (AID 681)

COc1cccc(-c2noc(-c3cccs3)n2)c1	> 0.407 µM
Cc1ccc2c(c1)c1c3n2CCCNC3CCC1 (stereo not given)	> 99 µM
O=C1OC(N2CCN(Cc3ccccc3)CC2)c2ccccc21 (stereo not given)	> 99 µM
COc1ccc(CCC(=O)Nc2ccc3c(c2)OCCO3)cc1	> 99 µM

Moving on to another molecule below.
Q: What value of EC50 has been recorded for this entry: COCCOC(=O)c1[nH]c2c(c1C)C(=O)CC(c1cc(OC)ccc1OC)C2 (stereo not given)
A: > 3.67 µM
